# System: MS2 coat protein
# Experiment Description: apparent KD of MS2 coat protein, switch ON state; designed switch direction (-1 OFF switch, 1 ON switch): -1; higher = weaker reporter binding
# Study Conditions: FMN input: 0 or 200 uM; Eterna round: R93 (includes R88 designs)
Given measured apparent KD of MS2 coat protein, output Condition met if it is greater than or equal to 50 nM and Condition not met if not.

Query: Please tell me: is the sequence AGAAAGUCAGGAUAUGCAGAUAAAAAAACGAAAAAAAAUCUGCAGAAGGGACAUGAGGAUCACCCAUGUAAAGA [Mat - Exclusion 4 - Mayanna - D111] at or over 50 nM in terms of apparent KD of MS2 coat protein?
Result: Condition met

Query: Here is the next sequence: AAGAAGUGAGGAUAUGCUGCUCGUCACUUGCGUGAUGAGUAGCAGAAGGCACAUGAGGAUCACCCAUGUGGGAA [Modifying Chris (69%) Late G segment, early G segment 3]
Result: Condition met

Query: Here is the next sequence: GAAAAUGGAGGAUAUACAUGAGGAUCACCCAUGUGUAUAAAAAAAUACACAAAAGAAAGUAGAAGGCCAUAAAG [Mat - Exclusion 3 - Mayanna mod - D101]
Result: Condition not met

Query: Here is the next sequence: AGGAAACAUGAGGAUCACCCAUGUGAGGAUAUUCAAAAGAAAAGAAAAGAAAGAAGAAGAAGAAGGCACAAGAA [Khayu]
Result: Condition not met

---

# Test system: MS2 coat protein
# Experiment Description: apparent KD of MS2 coat protein; designed switch direction (-1 OFF switch, 1 ON switch): -1; higher = weaker reporter binding
# Study Conditions: input ligand: microRNA oligo, concentration not stated
# apparent KD of MS2 coat protein values compiled below
Reply with just the number (in nM).

Query: Bench note: what apparent KD of MS2 coat protein did GACCAAUAGGUAGGAUAUCAUUGCGAUUAGCUAUGAGAAGGACCACAUGAGGAUCACCCAUGUCCUCUAAUUAGCCAAUUGGUA [8th something] (Eterna round: R96, puzzle: Exclusion NG 1) show?
Result: 170

Query: Here is the next sequence: AAGAAUUAGUCAGGAUAUAGCGGCCAAGAACUACUAGAAGGGAUUAGACAUGAGGAUCACCCAUGUGAUCUUUUUGUAGGGACG [Eternabot solution 15] (Eterna round: R96, puzzle: Exclusion NG 1)
Result: 25.7

Query: Here is the next sequence: CAAAAUGUAUAAGGAUAUCUCGCCAAUAAAGGCAGAGAAGGUAUACCCACUUGAGGAUCACCCAAGUCACGUGUGCCUGGUGGA [Mutated MS2 EX1.25] (Eterna round: R96, puzzle: Exclusion NG 1)
Result: 9.25

Query: Here is the next sequence: UACAUGAGGAUCACCCAUGUUUUGUCGUGUAUGGUAUUUAUCUAGGAUAUCAAUUUAUUUAAUUAUGAGAAGGAGAAUAUUAAU [JMF's solution 21] (Eterna round: R96, puzzle: Exclusion NG 3)
Result: 27.7

Query: Here is the next sequence: CAAAAUGUAUAAGGAUAUCUCGCCAAUAAAGGCAGAGAAGGUAUACCCACUUGAGGAUCACCCAAGUCAGGUGUGCCUGGUGGA [Mutated MS2 EX1.24] (Eterna round: R96, puzzle: Exclusion NG 1)
Result: 7.61

Query: Here is the next sequence: CGGUAGUAUGUAGGAUAUCGGUCAGUUUCUGAUCGAGAAGGACAUGAGGAUCACCCAUGUAAAACGACCGGUUUCUGGUUGCCG [JL ENG1 3.55] (Eterna round: R96, puzzle: Exclusion NG 1)
Result: 12

Query: Here is the next sequence: GUCAGCUCGUGAGGAUAUACAUGCGUGCUUCGGCACGAAUUUAAGAUCACAUGAGGAUCACCCAUGUAGAAGGCACGAGCUGAC [ENG2/3-A1] (Eterna round: R96, puzzle: Exclusion NG 2)
Result: 472

---

# System: MS2 coat protein
# Experiment Description: apparent KD of MS2 coat protein, switch OFF state (with FMN for OFF switches, without FMN for ON switches); designed switch direction (-1 OFF switch, 1 ON switch): 1; higher = weaker reporter binding
# Study Conditions: FMN input: 0 or 200 uM; Eterna round: R93 (includes R88 designs)
# apparent KD of MS2 coat protein values compiled below
The answer should read as a number with its unit following.

| Sequence Chain | System | Test Result |
| --- | --- | --- |
| AGGAAACAUGAGGAUCACCCAUGUAAAAAAUAGGGAGGAUAUGGAAACACGAAAGUGAAACCAGAAGGCUCAAAAA [77%, Mat - Mod of Eli, 23] | MS2 coat protein | 18.2 nM |
| AGGAAACAUGAGGAUCACCCAUGUAAAAAAUAGGGAGGAUAUACUAGAAGAAACAAAAUAGUAGAAGGCUCAAAAA [75%, Ex sub1, 25] | MS2 coat protein | 30 nM |
| AGGAGACAUGAGGAUCACCCAUGUGCACGUGGAGGAGGAUAUGCUAGUAGAAGAUAGAAAGCAGAAGGCCUAAGAA [mod of top voted: #2] | MS2 coat protein | 37.2 nM |
| GAAAAACAUGAGGAUCACCCAUGUGUAAACACGGGAGGAUAUACGAAGACGUAAGUCAAAGUAGAAGGCCUAAAAG [Garnet 40] | MS2 coat protein | 60.3 nM |

Query: Bench note: what apparent KD of MS2 coat protein did CGAAGACAUGAGGAUCACCCAUGUGGGAAUAUGGGAGGAUAUACAAAGACGAGAGUCAGAGUAGAAGGCCUAGGAA [salish99-ss1-104] show?
Result: 56.6 nM

Query: Here is the next sequence: AGCACGCGAUUGGAGGAUAUGUUGUUUGCAACAUGAGGAUCACCCAUGUCUGAGGCUGAAAAGCAGCAGAAGGCCGAUACAACCA [SS2-1.1]
Result: 113 nM

Query: Here is the next sequence: AAAAUAAAAUAAAAGGAUAUAAAGAUAUAUACAUGAGGAUCACCCAUGUAUAUAUCAAUAAAAUAAAAGAAGGAAUAAAAAUAAA [SS2 510: MS2 10]
Result: 18 nM

Query: Here is the next sequence: CGGAGACAUGAGGAUCACCCAUGUGAGAAGAGGCGAGGAUAUCGAAAGAAAGAAGAGAAACGAGAAGGCGCGAGAC [salish99-SS1-077]
Result: 26.7 nM

Query: Here is the next sequence: AAAGACACGGUGCAGGAUAUAGUAAUAGUCACAUGAGGAUCACCCAUGUUCUUUUAUAAGAACGAUUAGAAGGGCGGUGAAAAAA [SameState2 Malc#10]
Result: 92.6 nM

Query: Here is the next sequence: AUAAAAGAAGCGAAGGAUAUCCAACUCAAAACAUGAGGAUCACCCAUGUAAAGAAAUAAAAAAUGGGAGAAGGUCGCAAAGAAUA [73%, More Fisker Same State 2, D3, 14]
Result: 40.1 nM

Query: Here is the next sequence: AAGAUACAUGAGGAUCACCCAUGUCGAGAGAGACGAGGAUAUCUGAAUCGAUUAGAUUACGGAGAAGGCGUGAAAA [LROPPY Same State 1 - v07_deltaG=1.9]
Result: 34.3 nM

Query: Here is the next sequence: ACUUCACAUGAGGAUCACCCAUGUCAGGCCGGACUAGGAUAUUAUCAAGCAGCGUAACCAUAAGAAGGAGUAGGAA [JR_SS001_Sub313]
Result: 82.5 nM

Query: Here is the next sequence: GAAAAACAUGAGGAUCACCCAUGUAGAAAUAUGGGAGGAUAUACAAAGACGAAAGUCAAAGUAGAAGGCCUAAGAG [Garnet 22]
Result: 82.6 nM

Query: Here is the next sequence: AAAGACAUAGUGCAGGAUAUGGUAAUAGUCACAUGAGGAUCACCCAUGUUCUUUUAUAAGAACGAUCAGAAGGGCGGUAAAAAAA [SameState2 Malc#13]
Result: 666 nM

Query: Here is the next sequence: AAAAAACAUGAGGAUCACCCAUGUAAAAAAAACACAGGAUAUCCCUAAAAAAAAAAAAAAGGAGAAGGGUGAAAAA [Nob's Hobby 2 - Jieux - Same State 1]
Result: 29.8 nM

Query: Here is the next sequence: AAAUAAAUGACUGAGGAUAUGUCGAAGAAAACAUGAGGAUCACCCAUGUGAUAAUAAAAAGGGUGAUAGAAGGUAGUCAACAAAC [Mod 10 of Pariah 4 by Hyphema in Round 1]
Result: 262 nM

Query: Here is the next sequence: ACAAAUAAAAGAGAGGAUAUCCAAAAGAAAACAUGAGGAUCACCCAUGUGAAAGAAAAUAAAAUGGGAGAAGGCUCAGAAUAAUA [Topaz 30]
Result: 83.2 nM

---

# Test system: MS2 coat protein
# Experiment Description: apparent KD of MS2 coat protein; designed switch direction (-1 OFF switch, 1 ON switch): -1; higher = weaker reporter binding
# Study Conditions: Eterna round: R95; input ligand: none
# apparent KD of MS2 coat protein values compiled below
Reply with just the number (in nM).

Before answering, review these 2 worked examples.
| Sequence Chain | apparent KD of MS2 coat protein (nM) |
| --- | --- |
| UAUCGGCGGACCCAGGCUUUUUGCUCGUCUUAUGCUAUGACAUGAGGAUCACCCAUGUGGUGGUGGUCCGUUGUAGU [JL ViennaUCT Bitein mod 11] (puzzle: Sensor v3, turn-off variant 2) | 19.5 |
| GGAAAACAUGAGGAUCACCCAUGUAAGGAUAUGCAAAAGGAUAUAGAAGGAAUAAAAAGCAGAAGGUACAAAGG [salish99-ex1_r3_096] (puzzle: Exclusion 1) | 66.6 |

Query: Reported apparent KD of MS2 coat protein for MS2 coat protein, given GGUCAAGAGCAGCUCCGCGCUGCCAUUGACCGCUCAUUUACAUGAGGAUCACCCAUGUUUUUUGCUCGUCUUAUUAC [Somabi] (puzzle: Sensor v3, turn-off variant 2) ?
Result: 18.8

Query: Here is the next sequence: GAAAAGUGAGGAUAUGGUAAAAGAAAAAGAAAAAGAAAACUCCAGAAGGCACAUGAGGAUCACCCAUGUGAAAG [salish99_ex4_r3_006] (puzzle: Exclusion 4)
Result: 15.8

Query: Here is the next sequence: GGAAAGCAAGGAUAUACGAGGAGAAGGAGGAAAGUAAAAGGACAUGAGGAUCACCCAUGUAGAAGGUGCGAGAG [JR_Exclu2_Sub040] (puzzle: Exclusion 2)
Result: 32.9
